Tested on: 786-0
Test: NCI tumour cell line growth inhibition, 48 h
Calls of active or inactive are those of the source. Cut-off read from the data, not from the text of the source: active = GI50 up to about 1.1 µM and inactive = higher.
Assign a class; possible classes are y = active, n = inactive

Past entries and their recorded results:
COC(=O)[C@]12CCC(C)(C)C[C@H]1[C@H]1C(=O)C=C3[C@@]4(C)C=C(C#N)C(=O)C(C)(C)[C@@H]4CC[C@@]3(C)[C@]1(C)CC2: y
Clc1ccc(/C(=C/c2ccccc2)Cn2ccnc2)cc1: n
CC(=O)OCCCOCn1c(Cc2ccccc2)c(C)c(=O)[nH]c1=O: n
O=C(c1ccccc1)C(C(=O)c1ccccc1)c1nc2ccccc2sc1=O: n
Cc1nc(N2N=C(c3ccc(Cl)cc3)CCC2=O)sc1[N+](=O)[O-]: n

Exercise: Would you mind telling me which call this test gave Cc1ccc(S(=O)(=O)OCC23CCC(C2)C2CC23)cc1 (configuration not stated) ?
Solution: n

Exercise: Same thing, different compound: `c1ccc2c(c1)SCCCS2`
Solution: n

Exercise: Same thing, different compound: `CC(C)(Cc1ccccc1)Cc1cc(O)ccc1O`
Solution: n

Exercise: Same thing, different compound: `Cc1nnc([C@@]2(C)CC[C@H]3[C@@H](CC=C4C[C@@H](O)CC[C@@]43C)[C@@H]2CC#N)o1`
Solution: n

Exercise: Same thing, different compound: C=C(C)[C@@H]1CC[C@]2(C(=O)OC3OC(COC4OC(CO)C(OC5OC(C)C(O)C(O)C5O)C(O)C4O)C(O)C(O)C3O)CC[C@]3(C)[C@H](CC[C@@H]4[C@@]5(C)CC[C@H](O)[C@@](C)(CO)[C@@H]5CC[C@]43C)[C@@H]12 (some centres not stated)
Solution: n

----------
Test system: SR
Assay: NCI tumour cell line growth inhibition, 48 h
The source made the active and inactive calls. No stated cut-off is given here; in the data, active = GI50 up to about 1.1 µM and inactive = higher.
Assign a class; possible classes are active, inactive

Past entries and their recorded results:
CCOC(=O)c1nc2ccc(C(F)(F)F)cc2nc1NCc1ccc(OC)c(OC)c1: inactive
CC[C@@]1(O)C(=O)OCc2c1cc1n(c2=O)Cc2cc3c(N)cccc3nc2-1: active
C[C@]12CCC(=O)C[C@H]1CCC(O)[C@@H]2Br (stereo partly specified): inactive
O=C(c1ccccc1)c1sc2c(=O)c(C(=O)c3ccccc3)c(C(=O)c3ccccc3)sc2c(=O)c1C(=O)c1ccccc1: inactive
COc1cccc(C2c3cc4c(cc3OC(C)(N3CCCC3)C2C)OCO4)c1OC (stereo unspecified): inactive
O=C1CCCCC/C1=C\c1ccc(F)cc1: inactive
CC1=NN(c2nc(N)nc(/C(C#N)=C\c3ccc([N+](=O)[O-])s3)n2)C(C)(C)C1: active
OC(c1cccnc1Cl)c1nc2ccccc2c2ccnc(Cl)c12 (stereo unspecified): active

Exercise: Would you mind telling me which call this test gave `COc1cc(-c2nccc3cc(OC)c(OC)cc23)ccc1O` ?
Solution: inactive

Exercise: Same thing, different molecule: COC(=O)c1cc2c3c(cc(NCCN)c2[nH]1)N(C(=O)c1cc2cc(OC)c(OC)c(OC)c2[nH]1)CC3CCl (stereo unspecified)
Solution: active

----------
Test system: OVCAR-3
Test: NCI tumour cell line growth inhibition, 48 h
The source made the active and inactive calls. Rule as the data show it: active = GI50 up to about 1.1 µM and inactive = higher.
Recorded GI50 values for a group of compounds are listed next.

Example cases with answers are listed next.
C(=C\c1ccccc1)/C=N/c1nc2cc3sc(/N=C/C=C/c4ccccc4)nc3cc2s1: 24.3 µM (inactive)
Nc1ncnc2c1ncc(=O)n2C1CC(O)C(CO)O1 (stereo not given): > 100 µM (inactive)
CC(C)(N)C(=O)N[C@@H]1C(=O)N2[C@@H]1SC(C)(C)[C@@H]2C(=O)O: > 100 µM (inactive)

Exercise: Entry Brc1ccccc1C1SCc2nc3ccccc3n21 (stereo not given) : reported GI50 = ?
Solution: 13.5 µM (inactive)

Exercise: Same thing, different compound: COc1cc(/C=C2\CCC(CN(C)C)C2=O)ccc1OC(=O)c1ccccc1 (stereo not given)
Solution: 8.91 µM (inactive)

----------
Test system: SW-620
Test: NCI tumour cell line growth inhibition, 48 h
Active and inactive are the calls of the source. No stated cut-off is given here; in the data, active = GI50 up to about 1.1 µM and inactive = higher.
Recorded GI50 values for a group of compounds are listed next.

Exercise: Entry `CCn1c(-c2cc3ccccc3cc2OC(C)=O)n[nH]c1=S` : reported GI50 = ?
Solution: 35 µM (inactive)

Exercise: Same thing, different compound: `O=S(=O)(O)c1ccc2c(/N=N\c3cccc4ccccc34)c(O)c(S(=O)(=O)O)cc2c1`
Solution: > 100 µM (inactive)

Exercise: Same thing, different compound: CC(=O)OC1COC(n2c(-c3ccc(Cl)cc3)cc(-c3ccccc3)c(C#N)c2=S)C(OC(C)=O)C1OC(C)=O (stereo not given)
Solution: 41.1 µM (inactive)

Exercise: Same thing, different compound: `COc1cc(Br)c(/C=N\c2cccc3ccc(OS(=O)(=O)c4ccc([N+](=O)[O-])cc4)cc23)cc1OC`
Solution: > 100 µM (inactive)

Exercise: Same thing, different compound: `COC(=O)c1ccccc1Nc1ccccc1C(=O)OC`
Solution: > 100 µM (inactive)

----------
Listed here: molecules with reported GI50 for HCT-15.

Example cases with answers are listed next.
FC(F)(F)c1n[nH]c(SCc2ccc(Cl)cc2)n1: > 100 µM
O=C(CCl)N1CCN(c2ccccn2)CC1: > 10 µM
Nc1ncnc2c1ncn2[C@]1(CO)C=C(CO)C(O)C1O (some centres undefined): > 100 µM
CC1(C)C2CCC13C(=O)C1OC3(C2)C2C(=O)N(c3ccccc3)C(=O)C12 (centres undefined): > 100 µM
Cc1cn2c(/C=C3/C(=O)Nc4ccccc43)c(-c3ccccc3)nc2s1: > 100 µM

Exercise: Entry O=C(O)C1=C(CO)Oc2cc3c(cc2C1c1ccc2c(c1)OCO2)OCO3 (centres undefined) : reported GI50 = ?
Solution: > 100 µM

Exercise: Same thing, different molecule: Cc1cn(C(C)OCCN2C(=O)c3ccccc3C2=O)c(=O)[nH]c1=O (centres undefined)
Solution: > 100 µM

Exercise: Same thing, different molecule: `COC(=O)c1c2c(cc3c1CC1(C3)Cc3cc4c(c(C(=O)OC)c3C1)CCCC4)CCCC2`
Solution: > 100 µM

Exercise: Same thing, different molecule: COC(=O)C(=O)C(C(=O)C=C(C)C)C(=O)C(=O)Nc1ccc(Cl)cc1C (centres undefined)
Solution: > 100 µM

----------
System: OVCAR-5
Assay: NCI tumour cell line growth inhibition, 48 h
Calls of active or inactive are those of the source. Cut-off read from the data, not from the text of the source: active = GI50 up to about 1.1 µM and inactive = higher.
VALUE_TYPE: GI50

C#CCNC(=O)N(CC#C)N=O: > 100 µM (inactive)

Exercise: Entry `Cc1ccc(S(=O)(=O)NC(=O)NCCc2ccccc2)cc1` : reported GI50 = ?
Solution: > 100 µM (inactive)

Exercise: Same thing, different molecule: NC1NCCC(=O)N1CCc1c[nH]c2ccccc12 (stereo unspecified)
Solution: 23.6 µM (inactive)

Exercise: Same thing, different molecule: `CC1(C)CC(=O)c2c(nc(SSc3nc4c(c(-c5ccc(Br)cc5)c3C#N)C(=O)CC(C)(C)C4)c(C#N)c2-c2ccc(Br)cc2)C1`
Solution: > 10 µM (inactive)

Exercise: Same thing, different molecule: `O=C1C(O)=C(CC=C(Cl)Cl)C(=O)c2ccccc21`
Solution: 47.5 µM (inactive)

Exercise: Same thing, different molecule: CC(O)C(C(=O)O)N(CC1(O)OCC(O)C(O)C1O)N=O (stereo unspecified)
Solution: > 100 µM (inactive)

----------
Recorded GI50 values for a group of compounds are listed next.
System: RPMI-8226
Test: NCI tumour cell line growth inhibition, 48 h
Active and inactive are the calls of the source. Cut-off read from the data, not from the text of the source: active = GI50 up to about 1.1 µM and inactive = higher. Where a SMILES comes first, the peptide text is derived from it. Bridges are numbered along the chain shown (N, C = ends). [ ]: non-standard residue; d: D form. The star is where a group is joined. ξ: configuration not given here. ξNMePhe(4-NMe2) = CNC(Cc1ccc(N(C)C)cc1)C(=O)O; Picolinoyl(3-OH) = O=C(c1ncccc1O)*; ξPip(4-oxo) = O=C1CCNC(C(=O)O)C1; Phg = N[CH](C(=O)O)c1ccccc1; Abu = CC[CH](N)C(=O)O

Example cases with answers are listed next.
O=C(CSc1nnc(-c2ccc(/N=C\c3ccc(Cl)cc3)cc2)o1)Nc1ccc(Cl)cc1Cl: 32.4 µM (inactive)
CC1=C/C(O)CC(=O)Cc2nc(co2)C(=O)N2CCC=C2C(=O)OC(C(C)C)C(C)/C=C/C(=O)NC\C=C\1.CCC1NC(=O)C(NC(=O)c2ncccc2O)C(C)OC(=O)C(c2ccccc2)NC(=O)C2CC(=O)CCN2C(=O)C(Cc2ccc(N(C)C)cc2)N(C)C(=O)C2CCCN2C1=O (stereo not given) ({Picolinoyl(3-OH)}-T[Abu]P[ξNMePhe(4-NMe2)][ξPip(4-oxo)][Phg]; ester 1-C; configuration not given here): 4.68 µM (inactive)
CCOc1ccc2c(c1)c(CC(=O)O)cn2C: > 100 µM (inactive)

Exercise: Entry CC(NC(=O)C(N)CC(=O)O)C(=O)OC12CC3CC(CC(C3)C1)C2 (stereo not given) : reported GI50 = ?
Solution: > 100 µM (inactive)

Exercise: Same thing, different compound: `CCOC(=O)c1nc2cc(C(F)(F)F)ccc2nc1Nc1ccc(OC)c(OC)c1`
Solution: > 100 µM (inactive)
